Each recorded value in this set is attributed to PubChem BioAssay AID248.

Tested on: L1210 leukemia ip in BDF1 mice, survival T/C
Experiment: NCI In Vivo Anticancer Drug Screen. Data for tumor model L1210 Leukemia (intraperitoneal) in B6D2F1 (BDF1) mice
Details: endpoint: mean survival time; dose: 200.0 mg/kg/injection; schedule: Q01DX009 (ip); vehicle: saline; higher = longer survival
Experimental: The antitumor activity of compounds was measured in mice bearing transplantable tumors. Survival or tumor size were measured and the results are expressed as the measurement made in the treated group (T) divided by the measurement made in the vehicle treated control group (C). The tumor model used in this assay is L1210 Leukemia (intraperitoneal) in B6D2F1 (BDF1) mice
Inconclusive results and toxic doses are left out.
property name: T/C

Example results:
Using known records, supply T/C for "COc1cc(/C=N/NC(=O)c2cccnc2)cc(OC)c1OC"
107 % of control

Using known records, supply T/C for CCC1C(=O)NC(=O)C1(C)c1ccccc1 (configuration not stated)
110 % of control

Using known records, supply T/C for "Cc1cc[n+]([O-])cc1"
101 % of control

Continue with the compound presented below.
Using known records, supply T/C for "O=S(=O)(O)c1cccc(S(=O)(=O)O)c1"
103 % of control
